- Tested on: F1 hybrid maize plants
- assayText: trait efficacy field trial, quizalofop-P pressure screening, F1 hybrid
- Type: in vivo
- setupConditions: CTP A; crop injury percentage; 0.32 lb ai/acre at VE-V2, V4, V8
parameterMeasured: 4X Qizalofop-P CIPV8
Answers are plain numbers.

In the examples that follow, each entry is paired with its recorded 4X Qizalofop-P CIPV8.
MON-HT1: engineered oxygenase protein, amino acid sequence SEQ ID NO:14 (protein) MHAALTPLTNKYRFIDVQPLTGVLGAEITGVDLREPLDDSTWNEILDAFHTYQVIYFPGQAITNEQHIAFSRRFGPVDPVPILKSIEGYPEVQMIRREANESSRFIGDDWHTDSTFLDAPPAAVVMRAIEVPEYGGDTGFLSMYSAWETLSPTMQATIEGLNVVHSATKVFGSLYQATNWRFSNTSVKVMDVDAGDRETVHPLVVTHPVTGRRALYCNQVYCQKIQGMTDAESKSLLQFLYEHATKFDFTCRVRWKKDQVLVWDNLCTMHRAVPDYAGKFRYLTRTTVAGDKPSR | 7.5
MON-HT8: engineered oxygenase protein, amino acid sequence SEQ ID NO:37 (protein) MHAALTPLTNKYRFIDVQPLTGVLGAEITGVDLREPLDDSTWNEILDAFHTYQVIYFPGQAITNEQHIAFSRRFGPVDPVPILKSIEGYPEVQMIRREANESGRVIGDDWHTDSTFLDAPPAAVVMRAIEVPEYGGDTGFLSMYSAWETLSPTMQATIEGLNVVHSATKVFGSLYQATNWRFSNTSVKVMDVDAGDRETVHPLVVTHPVTGRRALYCNQVYCQKIQGMTDAESKSLLQFLYEHATKFDFTCRVRWKKDQVLVWDNLCTMHRSVPDYGNAFRYLTRTTVAGDKPSR | 15

Would you kindly look at the next entry?
Input line: Name the reported 4X Qizalofop-P CIPV8 value associated with the molecule MON-HT10: engineered oxygenase protein, amino acid sequence SEQ ID NO:43 (protein) MHAALTPLTNKYRFIDVQPLCGVLGAEITGVDLREPLDDSTWNEILDAFHTYQVIYFPGQAITNEQHIAFSRRFGPVDPVPLLKSIEGYPEVQMIRREANESGRILGDDWHTDSTFLDAPPAAVVMRAIEVPEYGGDTGFLSMYSAWDTLSDTMKATIEGLNVVHSATRVFGSLYQAQNWRFSNTSVKVMDVDAGDRETVHPLVVSHPVTGRRALYCNQVYCQRIEGMTDAESKCLLQFLYEHATKFDFTCRVRWKKDQVLVWDNLCTMHLAVPDYDGKFRYLTRTTVAGDKPSR
Output line: 5
